Target: UniProtKB P52333
Sequence (P52333 1-1124): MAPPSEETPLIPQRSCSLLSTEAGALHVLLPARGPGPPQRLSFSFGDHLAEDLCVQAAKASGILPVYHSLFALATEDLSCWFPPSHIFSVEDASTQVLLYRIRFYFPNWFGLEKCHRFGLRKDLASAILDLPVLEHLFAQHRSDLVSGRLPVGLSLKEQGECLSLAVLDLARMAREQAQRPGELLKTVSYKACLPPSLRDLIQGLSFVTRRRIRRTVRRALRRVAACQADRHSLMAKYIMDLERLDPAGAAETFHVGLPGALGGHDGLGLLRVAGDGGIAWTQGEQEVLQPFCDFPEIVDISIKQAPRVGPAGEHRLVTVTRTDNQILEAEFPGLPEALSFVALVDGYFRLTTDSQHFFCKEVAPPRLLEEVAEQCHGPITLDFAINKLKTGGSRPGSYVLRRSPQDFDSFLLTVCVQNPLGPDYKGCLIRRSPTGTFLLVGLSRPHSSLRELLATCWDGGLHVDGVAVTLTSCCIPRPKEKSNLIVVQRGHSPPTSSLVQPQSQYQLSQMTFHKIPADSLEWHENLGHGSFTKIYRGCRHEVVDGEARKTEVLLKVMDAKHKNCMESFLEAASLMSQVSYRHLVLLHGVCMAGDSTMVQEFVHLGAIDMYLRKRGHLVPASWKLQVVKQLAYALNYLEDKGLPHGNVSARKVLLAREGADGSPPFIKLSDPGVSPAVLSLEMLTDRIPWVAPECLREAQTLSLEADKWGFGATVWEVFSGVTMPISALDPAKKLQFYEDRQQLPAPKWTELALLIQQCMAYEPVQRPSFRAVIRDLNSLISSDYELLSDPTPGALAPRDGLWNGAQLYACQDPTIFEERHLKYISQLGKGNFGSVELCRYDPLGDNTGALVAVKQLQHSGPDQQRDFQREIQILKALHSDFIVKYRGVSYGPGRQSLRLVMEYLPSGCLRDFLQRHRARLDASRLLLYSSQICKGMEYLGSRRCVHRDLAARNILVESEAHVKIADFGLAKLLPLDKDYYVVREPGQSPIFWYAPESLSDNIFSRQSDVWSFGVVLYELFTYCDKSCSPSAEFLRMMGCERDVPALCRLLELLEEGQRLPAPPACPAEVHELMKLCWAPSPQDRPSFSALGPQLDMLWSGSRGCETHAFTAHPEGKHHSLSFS
pIC50: −log10 of the molar value. Where a name gives a salt, the structure may show the parent alone.
Returns one of YES or NO; YES when pIC50 is >= 7.

Data request: In plain terms: is recorded pIC50 at least 7 for C[C@H](Nc1nc(NCc2cccnc2)cc(Nc2cnccn2)n1)c1ccc(F)cc1 [Example 107] ?
Data returned: YES

Data request: Quick check: does C[C@H](Nc1nc(Nc2cnccn2)cc(N2CCN(S(C)(=O)=O)CC2)n1)c1ccc(Cl)cc1 [Example 100, hydrochloride] have pIC50 greater than or equal to 7?
Data returned: YES

Data request: Exam item: decide whether the reported pIC50 for C[C@H](Nc1nc(Nc2cnccn2)cc(N2CC(N3CCOCC3)C2)n1)c1ccc(F)cc1 [Example 223] is at least 7.
Data returned: YES

Data request: Reported pIC50 at or above 7? CC(=O)N[C@@H]1CCN(c2cc(Nc3cnccn3)nc(N[C@@H](C)c3ccc(F)cc3)n2)C1 [Example 27, hydrochloride]
Data returned: YES

Data request: State whether the measured pIC50 reaches 7, counting equality as reaching it, for C[C@H](Nc1nc(Nc2cnccn2)cc(N2CCNC2=O)n1)c1ccc(F)cc1 [Example 21, hydrochloride]
Data returned: NO

Data request: Confirm if pIC50 reported for the compound C[C@H](Nc1cc(C(=O)NCC2CC2)cc(Nc2cnccn2)n1)c1ccc(F)cc1 [Example 167] is 7 or above.
Data returned: NO

These measurements were taken from patent US8586591B2.
